# pIC50 per entry
SYSTEM_TESTED: High affinity choline transporter 1 (Homo sapiens, UniProt Q9GZV3, L531A/V532A)
Sequence (Q9GZV3 whole entry L531A/V532A): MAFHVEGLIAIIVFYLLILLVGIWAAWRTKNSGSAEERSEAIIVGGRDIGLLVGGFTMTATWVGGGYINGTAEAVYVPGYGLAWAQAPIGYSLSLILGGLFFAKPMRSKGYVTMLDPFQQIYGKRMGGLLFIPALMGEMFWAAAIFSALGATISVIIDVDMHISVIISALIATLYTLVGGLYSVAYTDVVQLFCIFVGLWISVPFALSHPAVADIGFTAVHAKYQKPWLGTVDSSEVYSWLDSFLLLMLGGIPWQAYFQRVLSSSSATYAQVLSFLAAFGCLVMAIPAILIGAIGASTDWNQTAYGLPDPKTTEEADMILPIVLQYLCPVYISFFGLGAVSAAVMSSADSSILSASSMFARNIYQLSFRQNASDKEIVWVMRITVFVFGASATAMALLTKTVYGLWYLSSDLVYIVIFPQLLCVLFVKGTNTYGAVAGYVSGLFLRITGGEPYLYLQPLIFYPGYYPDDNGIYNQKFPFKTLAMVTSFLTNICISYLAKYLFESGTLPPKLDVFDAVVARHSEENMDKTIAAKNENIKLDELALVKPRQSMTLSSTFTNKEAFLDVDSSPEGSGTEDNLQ
PROTOCOL_SUMMARY: Inhibition of human CHT […] mutant expressed in HEK293 cells by membrane depolarization assay
Format: cell-based
pIC50 field: float, defined as -log10 of concentration (mol/L).

Below, each entry is followed by its recorded pIC50 result.
CCc1cc(CNC(=O)c2ccc(OC)c(OC3CCN(C(C)C)CC3)c2)on1 = 6.22
COc1ccc(C(=O)NCc2nc(C)c(C)s2)cc1OC1CCN(C(C)C)CC1 = 6.12
CC(NC(=O)c1ccc(OC2CCN(Cc3ccccn3)CC2)cc1)c1ccccc1 (configuration not stated) = 5.90
COc1ccc(C(=O)NCCC2=CCCCC2)cc1OC1CCN(C(C)C)CC1 = 5.50
COc1ccc(C(=O)NC(C)Cc2cnccn2)cc1OC1CCN(C(C)C)CC1 (configuration not stated) = 5.35
COc1ccc(C(=O)NC2CCc3ccccc32)cc1OC1CCN(C(C)C)CC1 (configuration not stated) = 5.47

Please find the next compound below.
(Q) Please look at `CCCN1CCC(Oc2cccc(C(=O)NCCc3ccccc3)c2)CC1` and tell me its recorded pIC50 on High affinity choline transporter 1 (Homo sapiens, UniProt Q9GZV3, L531A/V532A).
(A) 5.37
